cAMP release, % activity, 10 µM listing for selected binders.
- SYSTEM_UNDER_TEST: human GLP-1 receptor (human, UniProt P43220 24-463)
- Sequence (P43220 24-463): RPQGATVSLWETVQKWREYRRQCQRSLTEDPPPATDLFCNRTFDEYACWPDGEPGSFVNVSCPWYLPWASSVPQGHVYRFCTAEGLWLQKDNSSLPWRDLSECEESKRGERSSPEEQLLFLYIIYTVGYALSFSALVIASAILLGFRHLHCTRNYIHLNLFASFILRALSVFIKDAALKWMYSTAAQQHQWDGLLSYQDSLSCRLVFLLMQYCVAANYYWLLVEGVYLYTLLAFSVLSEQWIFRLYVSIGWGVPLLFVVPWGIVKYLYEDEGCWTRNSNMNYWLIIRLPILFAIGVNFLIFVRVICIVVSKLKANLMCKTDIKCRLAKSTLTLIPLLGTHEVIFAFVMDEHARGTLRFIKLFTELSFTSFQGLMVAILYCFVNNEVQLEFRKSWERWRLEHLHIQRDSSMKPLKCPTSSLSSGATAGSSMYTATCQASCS
- TEST_PROTOCOL: cell-based or functional assay
Non-standard residues stand in square brackets, D forms with d. No end group written: not given here. 2F,4CF3‑APPA = 2-amino-5-(2-fluoro-4-(trifluoromethyl)phenyl)pentanoic acid; Bip(2'-Et-4'-OMe) = CCc1cc(OC)ccc1-c1ccc(C[C@H](N)C(=O)O)cc1; Leu(5,5,5,5',5',5'-F6) = N[C@@H](CC(C(F)(F)F)C(F)(F)F)C(=O)O; αMePhe(2-F) = C[C@](N)(Cc1ccccc1F)C(=O)O; NMeBip(OMe) = N-methylated Bip(OMe); hhPhe = N[C@@H](CCCc1ccccc1)C(=O)O; NMeD = CN[C@@H](CC(=O)O)C(=O)O; aThr = C[C@H](O)[C@H](N)C(=O)O; NMeAPPA = not defined here; CNB = not defined here; Aib = CC(C)(N)C(=O)O
READOUT_LABEL: cAMP release, % activity, 10 µM (%)

>>> quantitative_result("Ac-H[Aib][Leu(5,5,5,5',5',5'-F6)]GT[αMePhe(2-F)]TSD[Bip(2'-Et-4'-OMe)][hhPhe] [Seq. ID. No. 210: CH3CO-H-Aib-(Hfl)-GT-(α-Me-2F-Phe)-TSD-Bip(OMe)-(APPA)]")
99
>>> quantitative_result("H[Aib][CNB]G[aThr][αMePhe(2-F)][aThr]S[NMeD][NMeBip(OMe)][NMeAPPA] (reading uncertain) [Seq. ID. No. 154: H-Aib-(CNB)-G-T(allo)-(α-Me-2F-Phe)-T(allo)-S-(NMe)D-((NMe)Bip(OMe))-((NMe)(APPA))]")
99
>>> quantitative_result("H[Aib][CNB]G[aThr][αMePhe(2-F)][aThr]SD[Bip(2'-Et-4'-OMe)][hhPhe] (reading uncertain; also: thioamide bonds between residues 9-10 and 10-11) [Seq. ID. No. 178: H-Aib-(CNB)-G-T(allo)-(α-Me-2F-Phe)-T(allo)-SD-(C═S)-Bip(OMe)-(C═S)-(APPA)]")
98
>>> quantitative_result("H[Aib][CNB]GTFTSD[Bip(2'-Et-4'-OMe)][2F,4CF3‑APPA] (reading uncertain) [Seq. ID. No. 81: H-Aib-(CNB)-GTFTSD-Bip(OMe)-(2F, 4CF3-APPA)]")
99
